Quick reference for pEC50 among some molecules
# Tested on: Cdc2 (Cdk1) tyrosine 15 phosphorylation in NCI-H1299 cells
# ASSAY_PROCEDURE: Cdc2 (Cdk1) tyrosine 15-phosphorylation-inhibitory effect in NCI-H1299 cells, camptothecin-treated (ELISA)
# Assay type: cell-based
# CONDITION_INFO: Homo sapiens, 200 nM camptothecin 16 hours, then test compound with nocodazole 8 hours, read-out: Cdc2-Y15 Phosphorylation-Inhibitory Effect (H1299, +camptothecin) (EC50)
When answering, recall that pEC50 equals minus log10 of the concentration in mol/L, and write that number alone.

Observe how each entry below is paired with its result.
// `C=CCn1c(=O)c2cnc(Nc3ccc(N4CCN(C)CC4)cc3)nc2n1-c1cccc(-n2cc(F)ccc2=O)n1` : pEC50 value = 6.59

// recorded pEC50 for `C=CCn1c(=O)c2cnc(Nc3ccc(N4CCN(C)CC4)cc3)nc2n1-c1cccc(-n2ccccc2=O)n1` : 6.72

Kindly review the next molecule as well.
Please fill in: pEC50 reported for `C=CCn1c(=O)c2cnc(Nc3ccc4c(c3)CN(C)CC4)nc2n1-c1cccc(-n2ccccc2=O)n1` = 6.74
